assay: E. coli growth modulation, two-sided OD650, primary screen, E. coli filamentation project, strain DRC41, 24 h (AID 1093); conditions: OD650, 24 h, higher = more signal, called active from +8 up or from −8 down;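 also: MC1000 strain lacking acrAB efflux and sulA so SOS filamentation is blocked; test concentration not given here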
Each item that follows carries a reported z-score.
MEASURED_ENDPOINT: z-score

| COMPOUND | MEASURED |
| --- | --- |
| C[N+](C)(C)CCCC[C@@H]1NC(=O)[C@H]2C[C@@H](C(=O)NCCCCCNC(=O)CS)[C@@H](c3ccc(O)cc3)N2C1=O | 1.42 |
| O=C1C2C=CC(C(O)C(c3ccccc3)c3ccccc3)N(Nc3ccccc3)C2C(=O)N1c1ccccc1 (stereo not drawn) | -1.15 |
| COc1ccc(CCNC(=O)[C@@H]2c3ccccc3C(=O)N(CC34CC5CC(CC(C5)C3)C4)[C@H]2c2ccc(CO)cc2)cc1 | 0.573 |

---

experiment: small-molecule microarray binders of probe aCHRDL2, primary screen, biochemical, biotinylated probe, 635/667 nm fluorescence (AID 1100); settings: higher = more signal

| COMPOUND | composite z-score |
| --- | --- |
| C=CCN1C(=O)[C@]2(O[C@H](CCn3cc([C@H](O)c4ccccc4)nn3)[C@@H]([Si](C)(C)c3ccc(OC)cc3)[C@@H]2C)c2cc(N3C(=O)c4cccc5cccc3c45)ccc21 | 0.195 |
| O=C1O[C@@H](c2ccccc2)[C@@H](c2ccccc2)N2[C@@H](c3ccc(O)cc3)[C@]3(C(=O)Nc4ccc(C#CC5=CCCCC5)cc43)[C@@H](C(=O)N3CCCCCCC3)[C@H]12 | 1.25 |
| COCC(=C=CC[C@@H](O)c1ccc(OCCO)cc1)C[C@@H](O)COCc1ccccc1 | 0.548 |
| CC(C)CNC(=O)[C@@]1(C)c2ccccc2C(=O)N(Cc2cc(F)cc(C(F)(F)F)c2)[C@H]1c1ccc(CO)cc1 | 0.35 |
| CCCCCCCCCCC(O)C1C=CC2C(=O)N(C)C(=O)C2N1N1CCCCC1 (stereo not drawn) | 0.598 |
| Cc1ccc(S[C@]2(C(=O)NCCCN(C)C)CC(=O)N(Cc3ccccc3Cl)[C@@H]2c2ccc(CO)cc2I)cc1 | 0.864 |
| COCCOC(=O)N1C(=O)[C@@]2(c3cc(C#CC4=CCCCC4)ccc31)[C@H](C(=O)N1CCc3cc(OC)c(OC)cc3C1)[C@H]1C(=O)O[C@H](c3ccccc3)[C@H](c3ccccc3)N1[C@@H]2c1ccc(O)cc1 | -0.0061 |
| C=CCN1C(=O)[C@]2(O[C@H](CCO)[C@@H]([Si](C)(C)c3ccc(OC)cc3)[C@@H]2C)c2ccccc21 | 0.837 |
| CN1C=C(C(=O)OCCS(C)(=O)=O)C(C(=O)OCCS(C)(=O)=O)=CC(CCCO)=CC1c1ccc(CN2CCCC2)cc1 (stereo not drawn) | 0.539 |
| C=C(COC)/C(=C/C[C@@H](OC(C)=O)c1ccccc1OCCO)c1cc(C(=O)OC)ccc1OC | 0.012 |
| COCCOC(=O)N1C(=O)[C@@]2(c3ccccc31)[C@H](C(N)=O)[C@H]1C(=O)O[C@H](c3ccccc3)[C@H](c3ccccc3)N1[C@@H]2c1ccc(OCCO)cc1 | 0.093 |
| C=CCC(OC(C)=O)[C@@H]1[C@@H](N(Cc2ccc(-c3cccc(C(F)(F)F)c3)o2)C(=O)Cc2ccc(F)cc2)c2cc(OCCCO)ccc2N1C(=O)c1ccc2ccccc2c1 (stereo partly drawn) | 0.429 |
| CC1CC/C=C\[C@H]2OC34C=CCN(c5ccc(Cl)cc5)C(=O)[C@H]3N(CCCO)C(=O)[C@]4(C)C2C(=O)O1 (stereo partly drawn) | 0.717 |
| Cc1ccc(S[C@]2(C(=O)NCCN3CCOCC3)CC(=O)N(C3CCCCC3)[C@@H]2c2ccc(CO)cc2I)cc1 | -0.13 |
| C=CCC(OC(C)=O)[C@@H]1[C@@H](N(Cc2cc3ccccc3o2)C(=O)c2ccc(-c3ccccc3)cc2)c2cc(OCCCO)ccc2N1C(=O)c1ccc2ccccc2n1 (stereo partly drawn) | 0.51 |
| C=C(C(=O)CC[C@@H](OC(C)=O)c1cccc(OCCO)c1)C(C)C | 0.114 |
| C=CC[C@]1(C(=O)OC)N=C(c2ccc(OCCCO)cc2)O[C@H]1c1ccccc1N=[N+]=[N-] | 0.865 |
| CCOC(=O)C1=CC[C@@H](c2ccccc2)N(S(=O)(=O)C[Si](C)(C)C)[C@H]1c1ccccc1 | -0.0475 |
